Tested on: Digitaria sanguinalis (DIGSA)
Experiment: Example A pre-emergence herbicidal activity, glasshouse pot test
Type: in vivo
Details: Rate 250 g/ha, evaluated 19 or 20 days later, read-out: Pre-Emergence Activity DIGSA (100=total damage to plant; 0=no damage to plant)
Some compounds, each annotated with its measured pest or weed control at 250 g/ha.

- COMPOUND: "Cc1sc(-c2ccc(Cl)cc2)nc1C1C(=O)[C@@H]2[C@H](C1=O)[C@@]1(C)CC[C@]2(C)O1 (stereo partly shown) [Compound T26]"
  UNIT ABBREVIATION: "%"
  pest or weed control at 250 g/ha: 100
- COMPOUND: "Cc1sc(-c2ccc(Cl)cc2)nc1C1C(=O)[C@@H]2[C@H](C1=O)[C@H]1CC[C@@H]2O1 (stereo partly shown) [Compound T22]"
  UNIT ABBREVIATION: "%"
  pest or weed control at 250 g/ha: 100
- COMPOUND: "Cc1csc(C)c1C1C(=O)[C@@H]2[C@H](C1=O)[C@H]1CC[C@@H]2O1 (stereo partly shown) [Compound T10]"
  UNIT ABBREVIATION: "%"
  pest or weed control at 250 g/ha: 30
- COMPOUND: "Cc1sc(-c2ccc(Cl)nc2)nc1C1C(=O)[C@@H]2[C@H](C1=O)[C@H]1CC[C@@H]2O1 (stereo partly shown) [Compound T30]"
  UNIT ABBREVIATION: "%"
  pest or weed control at 250 g/ha: 60
